Items are presented alongside their recorded Rate of increase or decrease.
# experiment.description: LC/MS of serum sample: number of times of freezing and thawing (Table M)
# Assay type: physicochemical, human
# Parameters: key: detection intensity relative to 1 at 2 freeze-thaw cycles
# condition: 4 times of freezing and thawing; detection intensity relative to 1 at 2 times
# print the numeric value only

Solved entries (count: 4):
[
  {
    "compound": "O=c1ccn([C@@H]2O[C@H](CO)[C@@H](O)[C@H]2O)c(=O)[nH]1 [Uridine]",
    "Rate of increase or decrease": 0.68
  },
  {
    "compound": "Nc1nc2c(ncn2[C@@H]2O[C@@H]3COP(=O)(O)O[C@H]3[C@H]2O)c(=O)[nH]1 [Guanosine 3′,5′-cyclic monophosphate, guanosine 3′,5′-cyclic monophosphate]",
    "Rate of increase or decrease": 1.47
  },
  {
    "compound": "N[C@@H](CSSC[C@H](N)C(=O)O)C(=O)O [Cystine]",
    "Rate of increase or decrease": 1.56
  },
  {
    "compound": "Nc1ccccc1C(=O)CC(N)C(=O)O (centres unmarked) [Kynurenine]",
    "Rate of increase or decrease": 0.67
  }
]

Lab note: next compound to report on.
So, O=C(O)CCC(=O)O [Succinic acid] ? Its Rate of increase or decrease was 1.47
